system: HepG2; assay: cytotoxicity call (relative viability < 0.9); settings: 10 µM
The whole screen tested about 39,000 compounds, of which about 3,300 (8.5%) were called active. What follows is part of a selection rich in actives, with near analogues and random picks from the rest.

Smiles entry	cytotoxicity call
NS(=O)(=O)c1ccccc1	inactive
COc1ccc2c3c(n(c2c1)C)[C@@H](CO)N(C[C@]13CCN(CC1)Cc1cccc(c1)F)C(=O)Nc1ccc(cc1)F	inactive
COc1cccc(C#Cc2cnc3c(c2)C(=O)N([C@@H](C)CO)C[C@@H](C)[C@H](CN(C)C(=O)C2CCC2)O3)c1	inactive
CC(C)CC#Cc1ccc2c(c1)O[C@H](CN(C)C(=O)c1ccncc1)[C@H](C)CN([C@H](C)CO)S2(=O)=O	inactive
COc1ccc(S(=O)(=O)Nc2ccc3c(c2)CC(=O)N([C@H](C)CO)C[C@H](C)[C@@H](CN(C)C(=O)Nc2c(C)noc2C)O3)cc1	inactive
C[C@@H]1CN([C@H](C)CO)C(=O)c2cc(NC(=O)NC3CCCCC3)ccc2O[C@@H]1CN(C)S(C)(=O)=O	inactive
N[C@@H](CSCc1ccccc1Cl)C(=O)O	inactive
COc1cccc(c1)CN1CC[C@]2(CC1)CN([C@H](CO)c1c2c2ccc(cc2n1C)OC)C(=O)Nc1ccc(cc1)F	inactive

----------
system: HepG2; test: cytotoxicity call (relative viability < 0.9); details: 10 µM
Hit rate of the full screen: of about 39,000 compounds, about 3,300 (8.5%) were called active. Only a selection was taken, and actives are over-represented in it overall.
Outcome codes: active, inactive

Smiles entry	Qualitative label
COc1ccc(C#Cc2ccc3c(c2)[C@@]2(C(=O)N3C(=O)N[C@@H](C)c3ccccc3)[C@H](c3ccc(OCCO)cc3)N3[C@H](c4ccccc4)[C@H](c4ccccc4)OC(=O)[C@H]3[C@@H]2C(=O)O)cc1	active
C[C@H](CO)N1C[C@H](C)[C@@H](CN(C)Cc2ccncc2)Oc2ccc(NC(=O)Cn3cnnn3)cc2C1=O	inactive
O=C(C[C@H]1C=C[C@H](NC(=O)c2ccc(F)cc2)[C@H](CO)O1)NCc1ccncn1	inactive
Nc1cc(=O)nc(C(F)(F)F)[nH]1	inactive
COc1ccc(NC(=O)Nc2cccc3c2O[C@@H](CN(C)S(C)(=O)=O)[C@H](C)CN([C@H](C)CO)C3=O)cc1	inactive
C[C@@H]1CN([C@@H](C)CO)C(=O)CCCn2nncc2CO[C@H]1CN(C)C(=O)Nc1ccc2c(c1)OCCO2	inactive
C[C@@H]1CCCCO[C@@H](CN(C)Cc2ccccc2)[C@H](C)CN([C@H](C)CO)C(=O)c2cc(NC(=O)C3CCCCC3)ccc2O1	inactive
C[C@@H]1CN([C@@H](C)CO)S(=O)(=O)c2ccc(Br)cc2O[C@H]1CN(C)C(=O)c1ccccc1	inactive

----------
test system: HepG2; assay: cytotoxicity call (relative viability < 0.9); conditions: 10 µM
In all, about 39,000 compounds went through this assay and about 3,300 (8.5%) were called active. This excerpt belongs to a sample that is enriched for actives.

Smiles entry	cytotoxicity call
CC(C)NC(=O)Nc1ccc2c(c1)CC(=O)N([C@@H](C)CO)C[C@@H](C)[C@H](CN(C)S(=O)(=O)c1cn(C)cn1)O2	inactive
COc1ccc(NC(=O)Nc2ccc3c(c2)C(=O)N([C@H](C)CO)C[C@H](C)[C@@H](CN(C)C(=O)Nc2cccc4ccccc24)OCCCC[C@@H](C)O3)cc1	inactive
C[C@H](CO)N1C[C@H](C)[C@H](CN(C)Cc2ccncc2)Oc2ccc(NC(=O)CCCN(C)C)cc2C1=O	inactive
C[C@@H]1CCCCO[C@@H](CN(C)S(=O)(=O)c2ccccc2)[C@@H](C)CN([C@H](C)CO)C(=O)c2cc(NC(=O)Nc3ccc4c(c3)OCO4)ccc2O1	inactive
COc1ccc(S(=O)(=O)N(C)C[C@H]2Oc3ccc(NC(=O)Cn4cnnn4)cc3C(=O)N([C@@H](C)CO)C[C@H]2C)cc1	inactive
COc1cccc(S(=O)(=O)Nc2ccc3c(c2)[C@H]2C[C@H](CC(=O)N4CCCCC4)O[C@@H](CO)[C@H]2O3)c1	inactive
CC(C)(C)c1cc(CN)n[nH]1	inactive
